Exercise: for every item that follows, state its recorded absorbance at 450 nm.
# assayed_system: T1, Human 4-1BB extracellular domain recombinant protein (his-tag) (human, UniProt Q07011 24-186)
# T1 construct: extracellular domain; also called Human4-1BB, his-tag; human 4-1BB extracellular region recombinant protein; not shown: his-tag
# protocol_notes: ELISA, coated human 4-1BB-his 200 ng/well; antibody 0.014 µg/ml
Give bare numbers.

Example entries and their recorded answers appear below.
137-16 VHH-hFc recombinant antibody (Fc fusion, VHH fragment inserted into vector pFclG with human IgG1 Fc tag, expressed in HEK293F; Preparation had non-specific bands, purity >70%; also called CD137-16; not shown: human IgG1 Fc tag of the eukaryotic expression vector pFclG) EVQLVESGGGLVQAGASLTLSCVISGRTFSSYAMGWYRQAPGKERAFVGTITWNNDIIYSDSVKGRFTISTDDGKNTMYLQMNNLKPEDTAVYYCAAYSVPYGDFCTLNYDLMDYWGKGTLVTVSS: 0.41
137-39 VHH-hFc recombinant antibody (Fc fusion, VHH fragment inserted into vector pFclG with human IgG1 Fc tag, expressed in HEK293F; Preparation had non-specific bands, purity about 30%; not shown: human IgG1 Fc tag of the eukaryotic expression vector pFclG) QVQLVESGGGLVHVGESLTLSCVISGGSSNLYGIGWYRQAPGQERKLVAVLHNEHTTKYLDSVKGRFFVSGDNAKNTLYLHMNNVKVEDTAVYYCNSASGTLAGTGYFASVGPWGQGTLVTVSS: 0.521
137-36 VHH-hFc recombinant antibody (Fc fusion, VHH fragment inserted into vector pFclG with human IgG1 Fc tag, expressed in HEK293F; not shown: human IgG1 Fc tag of the eukaryotic expression vector pFclG) QVQLVESGGGLVQTGGSLTLSCVASGRRFEAYTIGWLRQAPGDLREGVGCIFGGTTFTGYDDSVKGRFTISRDTAKNTVYLRMNNLTSEDTATYYCAAEGRPGQIKGQHGCLTPSWYNYKGQGTQVTVSS: 0.413
137-12 VHH-hFc recombinant antibody (Fc fusion, VHH fragment inserted into vector pFclG with human IgG1 Fc tag, expressed in HEK293F; not shown: human IgG1 Fc tag of the eukaryotic expression vector pFclG) QVQLVESGGGLVHPGGSLRLSCAASGFTLDDSAIGWFRQAPGKEREGVSCRSRSGYMTKYADSVKGRFTISRYNANNTMYLQMNSLKPEDTAVYYCATTRRGYCSGYETKGVDYWGQGIQVTVSS: 0.395

Your task in this section: give absorbance at 450 nm for each listed record.
1. 137-18 VHH-hFc recombinant antibody (Fc fusion, VHH fragment inserted into vector pFclG with human IgG1 Fc tag, expressed in HEK293F; also called CD137-18; not shown: human IgG1 Fc tag of the eukaryotic expression vector pFclG) QVQLVESGGGLVHPGGSLRLSCAASGFIFSLYTMSWVRQAPGKGLEWVSDINSGGDSTDYADSVKGRFTISRDNAKSTLYLQMNSLKPEDTAVYYCAKDYPLGQREDYWGQGTQVTVSS
2. 137-1 VHH-hFc recombinant antibody (Fc fusion, also called CD137-1; not shown: human IgG1 Fc tag of the eukaryotic expression vector pFclG) QVQLVESGGGLVQPGGSLRLSCVASGFVFSTVTMGWGRQVPGKEFEWVSGVSSEGITDYADSVKGRFTISRDNAKNTVYLEMNSLKSEDTAEYYCLIGGRWSFGTWGQGTQVTVSS
3. 137-7 VHH-hFc recombinant antibody (Fc fusion, VHH fragment inserted into vector pFclG with human IgG1 Fc tag, expressed in HEK293F; also called CD137-7; not shown: human IgG1 Fc tag of the eukaryotic expression vector pFclG) QVQLVESGGGLVQPGGSLRLSCAASGFTLDSYAIAWFRQAPGKEREGVSCITSSGGSTNYADSVKGRFTISRDGAKNTVYLQLNSLKPEDTAIYYCAAFHRATCVILGEYDYWGQGTQVTVSS

1: 0.399; 2: 0.612; 3: 0.589
